Here the recorded Bliss excess is given for each entry.
Tested on: LB996-RCC (Kidney Carcinoma);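 note: after 72 h of two-drug dosing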
Experiment: Bliss excess, mean over the matrix (fraction); higher = more synergy
Number only, please.

{"columns": ["MOLECULE", "Bliss excess"],
 "data": [
  ["CC(=O)c1c(C)c2cnc(Nc3ccc(N4CCNCC4)cn3)nc2n(C2CCCC2)c1=O [Palbociclib] + Cn1cnc2c(F)c(Nc3ccc(Br)cc3Cl)c(C(=O)NOCCO)cc21 [Selumetinib] (first compound max 10 µM, 7x7, partner max 10 µM)", -0.0426]
]}

Next molecule, please.
In: Consider the molecule shown here: NC1(C(=O)N[C@@H](CCO)c2ccc(Cl)cc2)CCN(c2ncnc3[nH]ccc23)CC1 [Capivasertib] + C[C@@H]1COCCN1C2=NC(=NC(=C2)C3(CC3)[S@](=N)(=O)C)C4=C5C=CNC5=NC=C4 [AZD6738] (first compound max 10 µM, 7x7, partner max 10 µM) What is its recorded Bliss excess?
Out: -0.0418
